tested on: 67NR mouse mammary tumor cells; assay: antitumor activity in 67NR orthotopic mouse breast carcinoma model; type: in vivo, BALB/c mice; settings: 50 mg/kg b.w. per os, 5 days a week; 67NR tumor; N = 9; vs control group
Reported tumor growth inhibition (TGI) values for a set of compounds

[
  {
    "SAMPLE SMILES": "NS(=O)(=O)Oc1ccc(-c2cn(-c3cc(F)cc(F)c3)nn2)cc1",
    "tumor growth inhibition (TGI)": "39%"
  },
  {
    "SAMPLE SMILES": "NS(=O)(=O)Oc1ccc(-c2cn(-c3cccc(Cl)c3)nn2)cc1",
    "tumor growth inhibition (TGI)": "47%"
  },
  {
    "SAMPLE SMILES": "NS(=O)(=O)Oc1ccc(-c2cn(-c3cccc(F)c3)nn2)cc1",
    "tumor growth inhibition (TGI)": "42%"
  }
]
